Origin of values: paper PMC6409468

Residues, ends and D or L forms follow the SMILES beside them.
experimental-endpoint: pIC50
In plain terms, pIC50 is the concentration in mol/L turned into minus its base-10 logarithm.

Form: item CSCC[C@H](N)C(=O)N[C@@H](C)C(=O)N[C@@H](CC(=O)O)C(=O)N[C@@H](C)C(=O)O [Met-Ala-Asp-Ala] (H-MADA-OH) ; test system ACE (from rabbit lung) (Oryctolagus cuniculus, UniProt P12822); pIC50: 2.23

Lab note: molecule N[C@@H](Cc1ccc(O)cc1)C(=O)N[C@@H](Cc1ccc(O)cc1)C(=O)O [Tyr-Tyr] (H-Tyr-Tyr-OH) tested on ACE (from rabbit lung) (Oryctolagus cuniculus, UniProt P12822); recorded pIC50 was 2.07

Tested on ACE (from rabbit lung) (Oryctolagus cuniculus, UniProt P12822): N=C(N)NCCC[C@H](NC(=O)[C@@H](N)Cc1ccc(O)cc1)C(=O)N[C@@H](CCC(N)=O)C(=O)O [Tyr-Arg-Gln] (H-Tyr-Arg-Gln-OH) . Observed pIC50: 2.51

Readout pIC50 for CC(C)[C@H](N)C(=O)N[C@@H](CO)C(=O)N[C@@H](CO)C(=O)N[C@H](C(=O)O)C(C)C [Val-Ser-Ser-Val] (H-VSSV-OH) , test system ACE (from rabbit lung) (Oryctolagus cuniculus, UniProt P12822), was 2.07

Tested system ACE (from rabbit lung) (Oryctolagus cuniculus, UniProt P12822); pIC50 recorded for CC(C)C[C@H](N)C(=O)N[C@@H](CO)C(=O)N[C@@H](Cc1c[nH]c2ccccc12)C(=O)O [Leu-Ser-Trp] (H-Leu-Ser-Trp-OH) was 3.05

Known value: ACE (from rabbit lung) (Oryctolagus cuniculus, UniProt P12822) pIC50 of the molecule N[C@@H](Cc1ccccc1)C(=O)NCC(=O)N[C@@H](Cc1ccc(O)cc1)C(=O)O [Phe-Gly-Tyr] (H-Phe-Gly-Tyr-OH) equals 2.57

Measured pIC50 for this entry N[C@@H](Cc1ccc(O)cc1)C(=O)NCC(=O)O on ACE (from rabbit lung) (Oryctolagus cuniculus, UniProt P12822): 1.90

Result for NC(=O)C[C@H](NC(=O)[C@H](Cc1ccccc1)NC(=O)[C@@H](N)Cc1ccc(O)cc1)C(=O)N[C@@H](CCC(=O)O)C(=O)O [Tyr-Phe-Asn-Glu] (H-YFNE-OH) , tested on ACE (from rabbit lung) (Oryctolagus cuniculus, UniProt P12822), pIC50: 2.12

---

Please go through the items and note down their IC50.
Target: ACE (from rabbit lung) (Oryctolagus cuniculus)
Construct: ACE (peptidyldipeptide hydrolase from rabbit lung acetone extract); purchased Sigma; host or cells: rabbit lung (acetone extract)
Sequence (P12822 34-1310): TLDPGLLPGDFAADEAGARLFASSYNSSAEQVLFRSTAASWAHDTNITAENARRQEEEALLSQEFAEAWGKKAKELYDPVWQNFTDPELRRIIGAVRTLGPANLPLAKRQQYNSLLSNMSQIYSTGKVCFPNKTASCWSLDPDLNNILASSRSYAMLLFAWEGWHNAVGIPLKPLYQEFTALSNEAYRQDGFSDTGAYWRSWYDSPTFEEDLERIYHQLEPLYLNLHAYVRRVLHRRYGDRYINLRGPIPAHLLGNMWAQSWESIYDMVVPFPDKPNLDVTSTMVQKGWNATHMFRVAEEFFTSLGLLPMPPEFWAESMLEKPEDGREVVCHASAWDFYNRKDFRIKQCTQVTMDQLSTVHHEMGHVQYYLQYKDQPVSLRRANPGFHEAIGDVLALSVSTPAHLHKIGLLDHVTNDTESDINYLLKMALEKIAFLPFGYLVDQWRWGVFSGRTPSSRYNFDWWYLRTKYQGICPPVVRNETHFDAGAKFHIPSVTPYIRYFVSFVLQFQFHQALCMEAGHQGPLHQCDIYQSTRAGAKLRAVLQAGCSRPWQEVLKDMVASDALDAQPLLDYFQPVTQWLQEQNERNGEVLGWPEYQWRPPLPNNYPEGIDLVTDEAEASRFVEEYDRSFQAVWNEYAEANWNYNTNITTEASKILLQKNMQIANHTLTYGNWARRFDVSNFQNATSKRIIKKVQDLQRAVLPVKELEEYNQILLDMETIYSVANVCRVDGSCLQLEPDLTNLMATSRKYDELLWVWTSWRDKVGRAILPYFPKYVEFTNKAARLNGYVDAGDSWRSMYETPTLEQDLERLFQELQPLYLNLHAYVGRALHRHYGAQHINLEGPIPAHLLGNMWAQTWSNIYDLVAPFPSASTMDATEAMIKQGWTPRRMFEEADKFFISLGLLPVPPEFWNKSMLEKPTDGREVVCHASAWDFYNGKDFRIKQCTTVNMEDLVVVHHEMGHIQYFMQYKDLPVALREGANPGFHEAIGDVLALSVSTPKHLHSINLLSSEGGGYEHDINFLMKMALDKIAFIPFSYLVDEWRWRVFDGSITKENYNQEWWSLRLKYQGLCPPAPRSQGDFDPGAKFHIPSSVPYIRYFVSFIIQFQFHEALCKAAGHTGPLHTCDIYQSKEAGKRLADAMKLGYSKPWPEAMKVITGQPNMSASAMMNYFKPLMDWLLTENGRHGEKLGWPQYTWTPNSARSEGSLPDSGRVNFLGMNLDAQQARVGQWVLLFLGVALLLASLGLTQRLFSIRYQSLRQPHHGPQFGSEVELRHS
Assay: ACE inhibitory activity, spectrophotometric method (HHL substrate, hippuric acid at 228 nm)
Assay type: biochemical
Conditions: chemically synthesized peptides
No end group written: not given here.
Give the number; mM is assumed, so skip it.

Reported IC50 (ACE (from rabbit lung) (Oryctolagus cuniculus)) for entry LWHHT [Leu-Trp-His- His-Thr] is 5.21

Bench note, ACE (from rabbit lung) (Oryctolagus cuniculus): QPSGSQ [Gln-Pro-Ser-Gly-Ser-Gln] , IC50 reads 8.78
